Known solubility of a selection of molecules
- Measurement Description: Compound solubility in media
- Format: physicochemical
- Experimental Conditions: DMEM+2% FBS cell culture media, 37 °C, plasma or biological fluid, kinetic from dmso stock; DMEM+2% FBS media

Molecule	solubility
COc1ccc(C(=O)Nc2ccn(C3O[C@H](CO)[C@@H](O)C3(F)F)c(=O)n2)cc1 (stereo partly drawn)	> 500 µM
COc1cc(OC)cc(C(=O)Nc2ccn([C@@H]3O[C@H](CO)[C@@H](O)C3(F)F)c(=O)n2)c1	> 500 µM
O=C(Nc1ccn([C@@H]2O[C@H](CO)[C@@H](O)C2(F)F)c(=O)n1)c1cc(Cl)cc(Cl)c1	< 500 µM
NC(=O)c1ncn([C@@H]2O[C@H](CO)[C@@H](O)[C@H]2O)n1 [ribavirin, reference compound]	> 500 µM
COc1c(Cl)cc(C(=O)Nc2ccn(C3O[C@H](CO)[C@@H](O)C3(F)F)c(=O)n2)cc1Cl (stereo partly drawn)	> 500 µM
O=C(Nc1ccn(C2O[C@H](CO)[C@@H](O)C2(F)F)c(=O)n1)c1ccc(Cl)c(Cl)c1 (stereo partly drawn)	> 500 µM

---

- Measurement Description: TC50 MTS assay with human cancer cell lines: MCF-7
- Format: cell-based
- Experimental Conditions: MCF-7 cells, 96 h drug treatment

Compound	CC50 at 96 h (nM)
Nc1ccn([C@@H]2O[C@H](CO)[C@@H](O)C2(F)F)c(=O)n1 [gemcitabine, reference compound]	67
O=C(Nc1ccn([C@@H]2O[C@H](CO)[C@@H](O)C2(F)F)c(=O)n1)c1cc(Cl)cc(Cl)c1	326
COc1cc(C(=O)Nc2ccn([C@@H]3O[C@H](CO)[C@@H](O)C3(F)F)c(=O)n2)cc(OC)c1OC	566
COc1cc(OC)cc(C(=O)Nc2ccn([C@@H]3O[C@H](CO)[C@@H](O)C3(F)F)c(=O)n2)c1	1570

---

- Measurement Description: TC50 MTS assay: RPK9 cells (deficient in deoxycytidine kinase)
- Assay type: cell-based
- Experimental Conditions: human, 48 h drug treatment, dCK-deficient cells

Compound	CC50 at 48 h
Nc1ccn([C@@H]2O[C@H](CO)[C@@H](O)C2(F)F)c(=O)n1 [gemcitabine, reference compound]	> 500 µM
COc1cc(C(=O)Nc2ccn([C@@H]3O[C@H](CO)[C@@H](O)C3(F)F)c(=O)n2)cc(OC)c1OC	> 500 µM

---

Examples of molecules with documented CC50 follow.
- Tested on: Huh7 cells
- Measurement Description: in vitro
- Experimental Conditions: read-out: TC50; control Huh7 cells; 48 h drug exposure; MTS

Entry Smiles	CC50
COc1cccc(OC)c1C(=O)Nc1ccn([C@@H]2O[C@H](CO)[C@@H](O)C2(F)F)c(=O)n1	4.58 mM
COc1cc(OC)cc(C(=O)Nc2ccn([C@@H]3O[C@H](CO)[C@@H](O)C3(F)F)c(=O)n2)c1	0.962 mM

---

- Measurement Description: TC50 MTS assay with human cancer cell lines: HEK293
- Assay type: cell-based
- Experimental Conditions: HEK293 cells, 96 h drug treatment

Compound	Unit Abbrev	CC50 at 96 h
COc1cc(OC)cc(C(=O)Nc2ccn([C@@H]3O[C@H](CO)[C@@H](O)C3(F)F)c(=O)n2)c1	µM	4.02
Nc1ccn([C@@H]2O[C@H](CO)[C@@H](O)C2(F)F)c(=O)n1 [gemcitabine, reference compound]	µM	0.56
COc1cc(C(=O)Nc2ccn([C@@H]3O[C@H](CO)[C@@H](O)C3(F)F)c(=O)n2)cc(OC)c1OC	µM	1.28
O=C(Nc1ccn([C@@H]2O[C@H](CO)[C@@H](O)C2(F)F)c(=O)n1)c1cc(Cl)cc(Cl)c1	µM	1.19

---

- System: Huh7 cells
- Measurement Description: TC50 MTS assay with human cancer cell lines: Huh7
- Format: cell-based
- Experimental Conditions: 96 h drug treatment
Readout Label: CC50 (µM)

Entry Smiles	Tested On	Readout Label	Reported Measurement
COc1cc(OC)cc(C(=O)Nc2ccn([C@@H]3O[C@H](CO)[C@@H](O)C3(F)F)c(=O)n2)c1	Huh7 cells	CC50	18.5

---

- Test system: HCV luciferase replicon
- Measurement Description: Reversal of anti-HCV activity by exogenous nucleosides
- Assay type: cell-based, hepatitis C virus (HCV)
- Experimental Conditions: drug 1000, 100 or 25 nM; 50 μM cytidine or 2′-deoxycitidine; 48 h
Readout Label: reversal of the inhibition of the HCV luciferase replicon by deoxycytidine and cytidine

Compound	Reported Measurement
COc1cc(C(=O)Nc2ccn([C@@H]3O[C@H](CO)[C@@H](O)C3(F)F)c(=O)n2)cc(OC)c1OC	reversal
COc1cc(OC)cc(C(=O)Nc2ccn([C@@H]3O[C@H](CO)[C@@H](O)C3(F)F)c(=O)n2)c1	reversal
O=C(Nc1ccn([C@@H]2O[C@H](CO)[C@@H](O)C2(F)F)c(=O)n1)c1cc(Cl)cc(Cl)c1	reversal
Nc1ccn([C@@H]2O[C@H](CO)[C@@H](O)C2(F)F)c(=O)n1 [gemcitabine, reference compound]	reversal

---

- Tested on: HCV luciferase replicon
- Measurement Description: HCV luciferase replicon IC50 assay in Huh7 cells
- Experimental Conditions: TC50 in Huh7 / IC50 HCV replicon; 48 h
Readout Label: Therapeutic Index (TC50/IC50)

Compound	Relation Operator	Reported Measurement
COc1c(Cl)cc(C(=O)Nc2ccn(C3O[C@H](CO)[C@@H](O)C3(F)F)c(=O)n2)cc1Cl (stereo partly drawn)	>	5180
CCc1ccc(C(=O)Nc2ccn(C3O[C@H](CO)[C@@H](O)C3(F)F)c(=O)n2)cc1 (stereo partly drawn)	=	8430
O=C(Nc1ccn(C2O[C@H](CO)[C@@H](O)C2(F)F)c(=O)n1)c1ccc(Cl)cc1 (stereo partly drawn) [VV-033H]	=	3670

---

The following molecules are listed with their measured CC50 at 48 h values.
- Measurement Description: in vitro
Readout Label: CC50 at 48 h (µM)

Molecule	Relation Operator	Reported Measurement
COc1c(Cl)cc(C(=O)Nc2ccn(C3O[C@H](CO)[C@@H](O)C3(F)F)c(=O)n2)cc1Cl (some centres unmarked)	>	100
O=C(Nc1ccn(C2O[C@H](CO)[C@@H](O)C2(F)F)c(=O)n1)c1ccc(Cl)cc1Cl (some centres unmarked)	>	100
NC(=O)c1ncn([C@@H]2O[C@H](CO)[C@@H](O)[C@H]2O)n1 [ribavirin, reference compound]	=	527
O=C(Nc1ccn(C2O[C@H](CO)[C@@H](O)C2(F)F)c(=O)n1)c1ccc(Cl)cc1 (some centres unmarked) [VV-033H]	=	138
O=C(Nc1ccn([C@@H]2O[C@H](CO)[C@@H](O)C2(F)F)c(=O)n1)c1cc(Cl)cc(Cl)c1	=	110

---

The entries below come with measured CC50 at 96 h values attached.
- Measurement Description: TC50 MTS assay with human cancer cell lines: HEPG2
- Assay type: cell-based
- Experimental Conditions: HEPG2 cells, 96 h drug treatment

Molecule	CC50 at 96 h / µM
COc1cc(C(=O)Nc2ccn([C@@H]3O[C@H](CO)[C@@H](O)C3(F)F)c(=O)n2)cc(OC)c1OC [GTB, N^4-(3,4,5-Trimethoxybenzoyl)gemcitabine]	1.67
O=C(Nc1ccn([C@@H]2O[C@H](CO)[C@@H](O)C2(F)F)c(=O)n1)c1cc(Cl)cc(Cl)c1 [GCB, N^4-(3,5-Dichlorobenzoyl)gemcitabine]	0.633
Nc1ccn([C@@H]2O[C@H](CO)[C@@H](O)C2(F)F)c(=O)n1 [gemcitabine, reference compound]	0.311
COc1cc(OC)cc(C(=O)Nc2ccn([C@@H]3O[C@H](CO)[C@@H](O)C3(F)F)c(=O)n2)c1 [Compound G3DB, N^4-(3,5-Dimethoxybenzoyl)gemcitabine]	3.86

---

- System: HCV luciferase replicon
- Measurement Description: HCV luciferase replicon IC50 assay in Huh7 cells
- Experimental Conditions: TC50 in Huh7 / IC50 HCV replicon; 48 h
The following compounds are shown together with reported Therapeutic Index (TC50/IC50) values.

Compound	Tested On	Therapeutic Index (TC50/IC50)
COc1cc(C(=O)Nc2ccn([C@@H]3O[C@H](CO)[C@@H](O)C3(F)F)c(=O)n2)cc(OC)c1OC	HCV luciferase replicon	10040
O=C(Nc1ccn(C2O[C@H](CO)[C@@H](O)C2(F)F)c(=O)n1)c1ccc(Cl)c(Cl)c1 (stereo partly drawn)	HCV luciferase replicon	>5750
O=C(Nc1ccn([C@@H]2O[C@H](CO)[C@@H](O)C2(F)F)c(=O)n1)c1cc(Cl)cc(Cl)c1	HCV luciferase replicon	4310

---

- System: HCV luciferase replicon
- Measurement Description: HCV luciferase replicon IC50 assay in Huh7 cells
- Experimental Conditions: TC50 in Huh7 / IC50 HCV replicon; 48 h
Therapeutic Index (TC50/IC50) listing for selected compounds.

Compound	Tested On	Therapeutic Index (TC50/IC50)
COc1cccc(OC)c1C(=O)Nc1ccn([C@@H]2O[C@H](CO)[C@@H](O)C2(F)F)c(=O)n1	HCV luciferase replicon	10155
O=C(Nc1ccn(C2O[C@H](CO)[C@@H](O)C2(F)F)c(=O)n1)c1ccc(Cl)cc1Cl (stereo partly shown)	HCV luciferase replicon	>1290
COc1cc(OC)cc(C(=O)Nc2ccn([C@@H]3O[C@H](CO)[C@@H](O)C3(F)F)c(=O)n2)c1	HCV luciferase replicon	13100
Cc1ccc(C(=O)Nc2ccn(C3O[C@H](CO)[C@@H](O)C3(F)F)c(=O)n2)cc1 (stereo partly shown)	HCV luciferase replicon	7650
COc1ccc(C(=O)Nc2ccn(C3O[C@H](CO)[C@@H](O)C3(F)F)c(=O)n2)c(OC)c1OC (stereo partly shown)	HCV luciferase replicon	8670
COc1ccc(C(=O)Nc2ccn(C3O[C@H](CO)[C@@H](O)C3(F)F)c(=O)n2)cc1 (stereo partly shown)	HCV luciferase replicon	9530
NC(=O)c1ncn([C@@H]2O[C@H](CO)[C@@H](O)[C@H]2O)n1 [ribavirin, reference compound]	HCV luciferase replicon	10.2

Cited source for all entries: patent US9744186B2
